Data credit: the kinase profiling compilation of Christmann-Franck et al. (2016)

# Target Under Test: DAPK2 (human) (UniProt Q9UIK4)
# Sequence (Q9UIK4 whole entry, looked up): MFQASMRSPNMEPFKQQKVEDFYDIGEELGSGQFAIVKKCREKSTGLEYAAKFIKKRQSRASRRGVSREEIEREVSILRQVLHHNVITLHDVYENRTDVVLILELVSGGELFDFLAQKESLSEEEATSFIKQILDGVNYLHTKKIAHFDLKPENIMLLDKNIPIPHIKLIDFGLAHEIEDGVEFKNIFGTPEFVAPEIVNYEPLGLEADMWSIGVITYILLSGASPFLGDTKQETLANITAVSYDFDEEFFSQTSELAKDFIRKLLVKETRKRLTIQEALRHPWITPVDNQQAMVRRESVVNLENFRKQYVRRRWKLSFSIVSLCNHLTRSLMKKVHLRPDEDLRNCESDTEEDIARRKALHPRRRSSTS
# Assay Overview: radiometric filter-binding kinase assay, Kinase HotSpot
# Condition Description: compound 0.5 µM; ATP 10 µM
Endpoint Label: residual activity (%)
Your answer should be a plain number; it is taken to be in %.

Known results for compounds:
Notebook: pull reported residual activity for DAPK2 (human) (UniProt Q9UIK4), entry Nc1nnc2[nH]c3ccccc3nc1-2
91

Notebook: pull reported residual activity for DAPK2 (human) (UniProt Q9UIK4), entry O=C1Nc2ccccc2/C1=C1\Nc2ccccc2\C1=N/O
110

Notebook: pull reported residual activity for DAPK2 (human) (UniProt Q9UIK4), entry O=C1NC(=O)C(c2c[nH]c3ccccc23)=C1c1c[nH]c2ccccc12
88.6

Notebook: pull reported residual activity for DAPK2 (human) (UniProt Q9UIK4), entry O=C1Nc2ccccc2/C1=C1/Nc2ccccc2/C1=N\OCCC(O)CO (stereo not drawn)
104

Notebook: pull reported residual activity for DAPK2 (human) (UniProt Q9UIK4), entry CC(=O)O/N=C1\C(=C2\C(=O)Nc3cc(Br)ccc32)Nc2ccccc21
68.7

Notebook: pull reported residual activity for DAPK2 (human) (UniProt Q9UIK4), entry CC(C)[C@H](CO)Nc1nc(Nc2cc(N)cc(Cl)c2)c2ncn(C(C)C)c2n1
101

Notebook: pull reported residual activity for DAPK2 (human) (UniProt Q9UIK4), entry CCn1cnc2c(Nc3cccc(Cl)c3)nc(N[C@@H]3CCCC[C@@H]3N)nc21
99

Notebook: pull reported residual activity for DAPK2 (human) (UniProt Q9UIK4), entry CN([C@@H](Cc1ccc(OS(=O)(=O)c2cccc3cnccc23)cc1)C(=O)N1CCN(c2ccccc2)CC1)S(=O)(=O)c1cccc2cnccc12
99.7

Notebook: pull reported residual activity for DAPK2 (human) (UniProt Q9UIK4), entry Cn1nc2c3c(cccc31)C(=O)c1ccccc1-2
104

Notebook: pull reported residual activity for DAPK2 (human) (UniProt Q9UIK4), entry COc1cc2ncnc(N3CCN(C(=O)Nc4ccc(Oc5ccccc5)cc4)CC3)c2cc1OC
95

New cases:
Notebook: pull reported residual activity for DAPK2 (human) (UniProt Q9UIK4), entry CN(C)C[C@H]1CCn2c(c(C3=C(c4cn(C)c5ccccc45)C(=O)NC3=O)c3ccccc32)C1
90.4

Notebook: pull reported residual activity for DAPK2 (human) (UniProt Q9UIK4), entry Nc1nccc(-c2c(-c3ccc(F)cc3)ncn2C2CCNCC2)n1
94.1

Notebook: pull reported residual activity for DAPK2 (human) (UniProt Q9UIK4), entry O=C1Cc2c([nH]c3ccc(Br)cc23)-c2ccccc2N1
100

Notebook: pull reported residual activity for DAPK2 (human) (UniProt Q9UIK4), entry O=C1NC(=O)C(c2cn(CCCO)c3ncccc23)=C1c1cnccn1
88.4

Notebook: pull reported residual activity for DAPK2 (human) (UniProt Q9UIK4), entry O=C(O)/C=C/c1cc(Br)c(Br)c(Br)c1Br
104

Notebook: pull reported residual activity for DAPK2 (human) (UniProt Q9UIK4), entry COc1ccc(CNC(=O)Nc2ncc([N+](=O)[O-])s2)cc1
93.3

Notebook: pull reported residual activity for DAPK2 (human) (UniProt Q9UIK4), entry COc1cc2ncc(-c3ccccc3)nc2cc1OC
97.3
